# target_desc: human NPY Y5 receptor (Homo sapiens)
# Construct: expressed in transfected cells
# Sequence (Q15761 whole entry): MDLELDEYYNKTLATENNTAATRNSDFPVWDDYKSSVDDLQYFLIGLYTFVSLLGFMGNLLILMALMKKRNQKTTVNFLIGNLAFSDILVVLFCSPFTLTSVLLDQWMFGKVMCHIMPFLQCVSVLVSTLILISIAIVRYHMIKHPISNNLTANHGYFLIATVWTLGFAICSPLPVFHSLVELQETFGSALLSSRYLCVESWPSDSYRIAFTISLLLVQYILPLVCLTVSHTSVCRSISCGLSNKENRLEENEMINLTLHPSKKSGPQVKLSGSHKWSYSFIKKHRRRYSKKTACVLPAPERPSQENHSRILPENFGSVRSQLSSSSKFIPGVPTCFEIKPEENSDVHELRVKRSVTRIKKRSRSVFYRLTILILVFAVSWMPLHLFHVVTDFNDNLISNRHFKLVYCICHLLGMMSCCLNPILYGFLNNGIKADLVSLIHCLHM
# experiment: cAMP production inhibitory activity in CHO cells
# Type: cell-based
# run_conditions: against 50 nM NPY inhibition of forskolin stimulated cAMP, CHO cells expressing human NPY Y5 receptor
readout_kind: IC50 (nM)

Use these answered entries as a reference point.
1. CC(C)(C)S(=O)(=O)NC1CCC(C(=O)Nc2ccc3c(c2)OCCO3)CC1 (centres unmarked) [Compound I-202] | 67
2. C[C@@H]1CN(c2ccc(NC(=O)N3CCC(NS(=O)(=O)C(C)(C)C)CC3)cc2)C[C@H](C)O1 [Ia-67] | 75
3. CCCCc1ccc(NC(=O)c2ccc(N[S+]([O-])C(C)(C)C)cc2)cc1 (centres unmarked) [Compound I-101] | 38
4. COc1ccc(NC(=O)C2CCC(NS(=O)(=O)C(C)(C)C)CC2)c(Sc2ccccc2)n1 (centres unmarked) [Compound I-141] | 7.4

(P) CC(C)(C)S(=O)(=O)NC1CCC(C(=O)Nc2ccc(OC3CCOC3)cc2)CC1 (centres unmarked) [Ia-205]
(Q) CC(C)(C)S(=O)(=O)NC1CCC(C(=O)Nc2ccc3ncsc3c2)CC1 (centres unmarked) [Compound I-207]
Query: Larger number for IC50: P , or Q ? Give the label of your selection.
Result: P
(P: 99 nM, Q: 23 nM)
